Reported clearance by item:
# Assay Remarks: Clearance in iv dosed rat
# Format: ADME, organism-based
# Cond: in vivo
The figure you give is taken to be in mL/min/kg; do not add the unit.

stdin: What clearance value was documented for this compound, `Cc1ccc(-n2nccn2)c(C(=O)N2CCN(c3nc4cc(Cl)ccc4o3)CC[C@H]2C)c1` ?
stdout: 44

stdin: What clearance value was documented for this compound, `Cc1ccc(-c2ncccn2)c(C(=O)N2C[C@H](COc3ccc(F)cn3)CC[C@H]2C)c1` ?
stdout: 67

----------
# Assay Remarks: Half life in Beagle dog 1 mg/kg, iv
# Assay type: ADME, organism-based, Canis lupus familiaris
# Cond: in vivo
Measured Metric: half-life (h)
The figure you give is taken to be in h; do not add the unit.

stdin: What half-life value was documented for this molecule, `COc1ccc(S(=O)(=O)N2CCC[C@H]2C(=O)Nc2cc(C)cc(C)c2)cc1` ?
stdout: 1.7
